I'd be grateful if you could share measured IC50 for these entries.
- tgt: recombinant human brain NO-synthases (bcNOS) (Homo sapiens)
- protocol_description: Inhibition assay with recombinant human brain NO-synthases (bcNOS)
- test_context: substrate [3H]-arginine 4.4E-08 mol/l; bcNOS 0.022 IU/l
Response body: numeric value in µM, unit text excluded.

Item Cc1cccc2c1OC(C)C(N)=N2 (stereo not drawn) has what recorded IC50?
20

Quick one: IC50 of CCCC1Oc2ccccc2N=C1N (stereo not drawn) ?
1.2

Give the measured IC50 of Cc1cc2c(cc1C)OC(C)C(N)=N2 (stereo not drawn) .
3

---

Kindly state pIC50 for each of the entries shown.
- tgt: recombinant human inducible NO-synthases (iNOS) (Homo sapiens)
- protocol_description: Inhibition assay with recombinant human inducible NO-synthases (iNOS)
- test_context: substrate [3H]-arginine; analogously to bcNOS
pIC50: −log10 of the molar value.

Request - read-out pIC50 | tested on recombinant human inducible NO-synthases (iNOS) (Homo sapiens) | compound Cc1cc2c(cc1C)OC(C)C(N)=N2 (stereo not drawn)
< 4.00

Request - read-out pIC50 | tested on recombinant human inducible NO-synthases (iNOS) (Homo sapiens) | compound Cc1cccc2c1OC(C)C(N)=N2 (stereo not drawn)
< 5.00

What pIC50 appears in the records for this compound with recombinant human inducible NO-synthases (iNOS) (Homo sapiens)? CCCC1Oc2ccccc2N=C1N (stereo not drawn)
< 4.00
